- Test system: PDX1206
- EXPERIMENT: GRmax, 72 h; higher = less effect
PROPERTY: GRmax, 72 h (GR)
The reply should be a number in GR, with the unit left off.

What value of GRmax, 72 h has been recorded for this entry: CN(C)C/C=C/C(=O)Nc1ccc(O[C@@H]2CCC[C@@H](Nc3ncc(Cl)c(-c4c[nH]c5ccccc45)n3)C2)cc1 [BSJ-01-175] (max 10 µM)
-0.936

What value of GRmax, 72 h has been recorded for this entry: CC(=O)c1c(C)c2cnc(Nc3ccc(N4CCN(CCOCCOCCOCCNC(=O)COc5cccc6c5C(=O)N(C5CCC(=O)NC5=O)C6=O)CC4)cn3)nc2n(C2CCCC2)c1=O (stereo not drawn) [BSJ-03-123] (max 10 µM)
-0.138

What value of GRmax, 72 h has been recorded for this entry: CN(C)C/C=C/C(=O)Nc1ccc(C(=O)Nc2cccc(Nc3cc(-c4c[nH]c5ccccc45)ncn3)c2)cc1 [THZ-P1-2] (max 10 µM)
0.857

###

Kindly state GRmax, 72 h for each of the entries shown.
- System: SUM185PE
- EXPERIMENT: GRmax, 72 h; higher = less effect
The reply should be a number in GR, with the unit left off.

What value of GRmax, 72 h has been recorded for this entry: CCN1CCN(Cc2ccc(Nc3ncc(F)c(-c4cc(F)c5nc(C)n(C(C)C)c5c4)n3)nc2)CC1 (max 10 µM)
0.486

What value of GRmax, 72 h has been recorded for this entry: CN(C)CC[C@H](CSc1ccccc1)Nc1ccc(S(=O)(=O)NC(=O)c2ccc(N3CCN(Cc4ccccc4-c4ccc(Cl)cc4)CC3)cc2)cc1[N+](=O)[O-] [ABT-737] (max 10 µM)
-0.294

What value of GRmax, 72 h has been recorded for this entry: Cc1nc(NC(=O)N2CCC[C@H]2C(N)=O)sc1-c1ccnc(C(C)(C)C(F)(F)F)c1 [Alpelisib/BYL719] (max 10 µM)
0.15

What value of GRmax, 72 h has been recorded for this entry: Nc1ccc(-c2ccc3ncc4ccc(=O)n(-c5cccc(C(F)(F)F)c5)c4c3c2)cn1 [Torin2] (max 1 µM)
-0.0832

###

- System: BT474
- EXPERIMENT: area over the GR curve, 72 h; higher = more effect
PROPERTY: area over the GR curve (GR)
The reply should be a number in GR, with the unit left off.

What value of area over the GR curve has been recorded for this entry: `COc1ccc2c(c1)[C@]1(C[C@H]1c1ccc3c(/C=C/c4ccc(CN5C[C@@H](C)O[C@@H](C)C5)cc4)n[nH]c3c1)C(=O)N2`
0.475

What value of area over the GR curve has been recorded for this entry: CO[C@H]1C[C@@H]2CC[C@@H](C)[C@@](O)(O2)C(=O)C(=O)N2CCCC[C@H]2C(=O)O[C@H]([C@H](C)C[C@@H]2CC[C@@H](OCCO)[C@H](OC)C2)CC(=O)[C@H](C)/C=C(\C)[C@@H](O)[C@@H](OC)C(=O)[C@H](C)C[C@H](C)/C=C/C=C/C=C/1C [Everolimus] (max 10 µM)
0.898

What value of area over the GR curve has been recorded for this entry: CCNC(=O)c1noc(-c2cc(C(C)C)c(O)cc2O)c1-c1ccc(CN2CCOCC2)cc1 [Luminespib/NVP-AUY922] (max 1 µM)
0.781

What value of area over the GR curve has been recorded for this entry: O=C1NC(=O)[C@@H](c2cn3c4c(cccc24)CCC3)[C@@H]1c1c[nH]c2ccccc12 [Tivantinib/ARQ197] (max 10 µM)
0.309

###

- Tested on: MDAMB231
- EXPERIMENT: area over the GR curve, 72 h; higher = more effect
Would you please tag the item true when its area over the GR curve is 0.1 GR or above, and false when it is below?

Form field: area over the GR curve at least 0.1 GR? Entry: O=C(CCCCCCC(=O)Nc1ccccc1)NO [Vorinostat] (max 10 µM)
true

Form field: area over the GR curve at least 0.1 GR? Entry: CNCc1ccc(-c2[nH]c3cc(F)cc4c3c2CCNC4=O)cc1 [Rucaparib] (max 10 µM)
false

Form field: area over the GR curve at least 0.1 GR? Entry: Cc1cc(C(C)Nc2ccccc2)c2nc(N3CCOCC3)cc(=O)n2c1 (stereo unspecified) [TGX221] (max 10 µM)
false

Form field: area over the GR curve at least 0.1 GR? Entry: `COc1cc(N2CCN(C)CC2)ccc1Nc1ncc2c(n1)N(C)c1ccccc1C(=O)N2CC(F)(F)F`
false

Form field: area over the GR curve at least 0.1 GR? Entry: CO[C@H]1C[C@@H]2CC[C@@H](C)[C@@](O)(O2)C(=O)C(=O)N2CCCC[C@H]2C(=O)O[C@H]([C@H](C)C[C@@H]2CC[C@@H](OCCO)[C@H](OC)C2)CC(=O)[C@H](C)/C=C(\C)[C@@H](O)[C@@H](OC)C(=O)[C@H](C)C[C@H](C)/C=C/C=C/C=C/1C [Everolimus] (max 10 µM)
true

Form field: area over the GR curve at least 0.1 GR? Entry: CCOc1cc2ncc(C#N)c(Nc3ccc(OCc4ccccn4)c(Cl)c3)c2cc1NC(=O)/C=C/CN(C)C [Neratinib/HKI272] (max 3.162 µM)
true

###

- System: HCC38
- EXPERIMENT: GRmax, 72 h; higher = less effect;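 also: breast cell lines in 384-well plates, nine doses across a 10^4 range, Dye Drop imaging of viable cells vs DMSO and time-zero plates, GR 0 means no net growth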
PROPERTY: GRmax, 72 h (GR)
The reply should be a number in GR, with the unit left off.

Look up GRmax, 72 h with HCC38 for this compound: C=CCn1c(=O)c2cnc(Nc3ccc(N4CCN(C)CC4)cc3)nc2n1-c1cccc(C(C)(C)O)n1 [AZD1775] (max 10 µM)
-0.492

Look up GRmax, 72 h with HCC38 for this compound: O=C1NC(=NCc2cccs2)SC1=Cc1ccc2ncccc2c1 [R0-3306] (max 10 µM)
-0.239

Look up GRmax, 72 h with HCC38 for this compound: CNCc1ccc(-c2[nH]c3cc(F)cc4c3c2CCNC4=O)cc1 [Rucaparib] (max 10 µM)
0.652

###

- Test system: HCC1428
- EXPERIMENT: area over the GR curve, 72 h; higher = more effect
Kindly state area over the GR curve for each of the entries shown.
The reply should be a number in GR, with the unit left off.

Look up area over the GR curve with HCC1428 for this molecule: O=C1NC(=O)[C@@H](c2cn3c4c(cccc24)CCC3)[C@@H]1c1c[nH]c2ccccc12 [Tivantinib/ARQ197] (max 10 µM)
0.345

Look up area over the GR curve with HCC1428 for this molecule: CS(=O)(=O)N1CCN(Cc2cc3nc(-c4cccc5[nH]ncc45)nc(N4CCOCC4)c3s2)CC1 [Pictilisib/GDC0941] (max 10 µM)
0.117

Look up area over the GR curve with HCC1428 for this molecule: CC(=O)O[C@H]1C(=O)[C@@]2(C)[C@H]([C@H](OC(=O)c3ccccc3)[C@]3(O)C[C@H](OC(=O)[C@H](O)[C@@H](NC(=O)c4ccccc4)c4ccccc4)C(C)=C1C3(C)C)[C@]1(OC(C)=O)CO[C@@H]1C[C@@H]2O [Paclitaxel] (max 1 µM)
0.507

Look up area over the GR curve with HCC1428 for this molecule: COc1cccc2c1C(=O)c1c(O)c3c(c(O)c1C2=O)C[C@@](O)(C(=O)CO)C[C@@H]3O[C@H]1C[C@H](N)[C@H](O)[C@H](C)O1 [Doxorubicin] (max 3.162 µM)
0.895

###

Kindly state area over the GR curve for each of the entries shown.
- System: MGH312
- EXPERIMENT: area over the GR curve, 72 h; higher = more effect;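 also: Dye Drop or Deep Dye Drop imaging of viable cells in 384-well plates (Hoechst nuclei, LIVE/DEAD dye), nine half-log doses, GR normalized to DMSO controls and time-zero plates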
The reply should be a number in GR, with the unit left off.

What value of area over the GR curve has been recorded for this entry: CCc1cncnc1N1CCN(Cc2nc3ccc(C(F)(F)F)cc3[nH]2)CC1 (max 10 µM)
-0.0701

What value of area over the GR curve has been recorded for this entry: O=C1NC(=NCc2cccs2)SC1=Cc1ccc2ncccc2c1 [R0-3306] (max 10 µM)
0.0994

What value of area over the GR curve has been recorded for this entry: Cc1nc(NC(=O)N2CCC[C@H]2C(N)=O)sc1-c1ccnc(C(C)(C)C(F)(F)F)c1 [Alpelisib/BYL719] (max 10 µM)
-0.015

What value of area over the GR curve has been recorded for this entry: `COc1cccc(OCCCN)c1-c1cc(Nc2cnc(C#N)cn2)n[nH]1`
0.0934

What value of area over the GR curve has been recorded for this entry: CN1CCN(C(=O)c2ccc3cc(CCNc4ncnc5ccc(C#N)cc45)ccc3c2)CC1 [senexin b] (max 10 µM)
0.418

What value of area over the GR curve has been recorded for this entry: CO[C@H]1C[C@@H]2CC[C@@H](C)[C@@](O)(O2)C(=O)C(=O)N2CCCC[C@H]2C(=O)O[C@H]([C@H](C)C[C@@H]2CC[C@@H](OCCO)[C@H](OC)C2)CC(=O)[C@H](C)/C=C(\C)[C@@H](O)[C@@H](OC)C(=O)[C@H](C)C[C@H](C)/C=C/C=C/C=C/1C [Everolimus] (max 10 µM)
0.798

What value of area over the GR curve has been recorded for this entry: O=C1NC(=O)[C@@H](c2cn3c4c(cccc24)CCC3)[C@@H]1c1c[nH]c2ccccc12 [Tivantinib/ARQ197] (max 10 µM)
0.396

What value of area over the GR curve has been recorded for this entry: CC(C)n1nc(-c2ccc3oc(N)nc3c2)c2c(N)ncnc21 [INK128/MLN0128] (max 3.162 µM)
1.22

What value of area over the GR curve has been recorded for this entry: CC(=O)O[C@H]1C(=O)[C@@]2(C)[C@H]([C@H](OC(=O)c3ccccc3)[C@]3(O)C[C@H](OC(=O)[C@H](O)[C@@H](NC(=O)c4ccccc4)c4ccccc4)C(C)=C1C3(C)C)[C@]1(OC(C)=O)CO[C@@H]1C[C@@H]2O [Paclitaxel] (max 1 µM)
0.973

The origin of these recorded values is the supplement of paper PMC9663587.
